Entry source: patent US7563910B2

# collection of IC50 values tested on human cannabis CB1 receptor (Homo sapiens, UniProt P21554)
# Sequence (P21554 whole entry): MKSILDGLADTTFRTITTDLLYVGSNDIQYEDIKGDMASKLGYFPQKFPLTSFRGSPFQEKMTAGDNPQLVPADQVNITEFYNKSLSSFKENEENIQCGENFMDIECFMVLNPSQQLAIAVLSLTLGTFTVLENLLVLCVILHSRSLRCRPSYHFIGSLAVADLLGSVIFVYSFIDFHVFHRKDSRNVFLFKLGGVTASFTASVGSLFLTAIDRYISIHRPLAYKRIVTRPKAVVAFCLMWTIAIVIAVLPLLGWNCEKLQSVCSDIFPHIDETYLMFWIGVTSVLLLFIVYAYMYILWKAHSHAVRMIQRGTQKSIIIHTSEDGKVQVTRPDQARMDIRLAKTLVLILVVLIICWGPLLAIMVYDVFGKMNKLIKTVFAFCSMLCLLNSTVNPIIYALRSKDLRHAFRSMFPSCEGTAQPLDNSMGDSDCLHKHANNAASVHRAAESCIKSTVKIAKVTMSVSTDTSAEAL
Just so you know, I need the unit written after the number.

Query: What value of IC50 on human cannabis CB1 receptor (Homo sapiens, UniProt P21554) does "Cc1c(C(=O)NC2CCCCC2)cc(-c2cc(C(F)(F)F)ccc2C(F)(F)F)n1C[C@H]1CCCO1" have?
Response: 8 nM

Query: Under human cannabis CB1 receptor (Homo sapiens, UniProt P21554): IC50 value of Cc1c(C(=O)NN2CCCCC2)nc(-c2ccc(OC(F)(F)F)cc2)n1CC1CCCCO1 (stereo not drawn) ?
Response: 120 nM

Query: Notebook entry, human cannabis CB1 receptor (Homo sapiens, UniProt P21554) assay: IC50 of Cc1c(C(=O)NC2CCCCC2)cc(-c2ccccc2OC(F)(F)F)n1CC1COCCO1 (racemic) = ?
Response: 76 nM
